Recorded pKi for compounds tested on D(2) dopamine receptor (Homo sapiens, UniProt P14416), drawn from a number of studies.
Sequence (P14416 whole entry): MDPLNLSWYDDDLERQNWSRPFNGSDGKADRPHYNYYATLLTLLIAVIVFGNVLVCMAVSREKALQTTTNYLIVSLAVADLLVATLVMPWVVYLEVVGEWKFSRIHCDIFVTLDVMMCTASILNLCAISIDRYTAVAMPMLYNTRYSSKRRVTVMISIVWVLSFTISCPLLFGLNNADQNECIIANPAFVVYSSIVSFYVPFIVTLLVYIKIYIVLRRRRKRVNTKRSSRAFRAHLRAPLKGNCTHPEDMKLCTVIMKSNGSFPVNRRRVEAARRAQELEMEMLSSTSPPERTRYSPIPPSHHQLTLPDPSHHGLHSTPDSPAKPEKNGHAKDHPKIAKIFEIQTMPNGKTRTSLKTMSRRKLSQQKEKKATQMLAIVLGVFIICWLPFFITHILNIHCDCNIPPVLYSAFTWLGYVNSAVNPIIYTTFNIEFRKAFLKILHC
pKi: −log10 of the molar value.
Please mark true if the recorded pKi is equal to or greater than 7, and false if it falls below.

Some entries whose results are on file:
Task item: Does the compound CC(C)(C)OC(=O)Nc1ccc(CCN2CCc3ccccc3C2)cc1 have recorded pKi that is 7 or more?
Reply: false

Task item: Does the compound CC(C)c1ccccc1N1CCN(CCCCCC(=O)NCc2ccccc2)CC1 have recorded pKi that is 7 or more?
Reply: true

Task item: Does the compound COc1ccccc1N1CCN(CNC(=O)c2ccc(C)cc2)CC1 have recorded pKi that is 7 or more?
Reply: false

Task item: Does the compound COc1ccc(-c2cc(CCCCN3CCN(c4ccccc4F)CC3)on2)cc1OC have recorded pKi that is 7 or more?
Reply: false

Task item: Does the compound COc1cccc(N2CCN(CCCCNC(=O)c3ccccn3)CC2)n1 have recorded pKi that is 7 or more?
Reply: false

---
Task item: Does the compound O=C1CCc2ccccc2N1CCCN1CCN(c2ncccn2)CC1 have recorded pKi that is 7 or more?
Reply: false

Task item: Does the compound COc1cccc(N2CCN(CCCN3C(=O)CCc4ccccc43)CC2)c1 have recorded pKi that is 7 or more?
Reply: false

Task item: Does the compound CC(C)(C)OC(=O)N[C@H]1CC[C@H](CN2CCN(c3cccc(Cl)c3Cl)CC2)CC1 have recorded pKi that is 7 or more?
Reply: false

Task item: Does the compound CN[C@@H]1Cc2cccc3c2n(c(=O)n3CCOCCOCCOCCOc2ccc3c(c2)NC(=O)CC3)C1 have recorded pKi that is 7 or more?
Reply: false

Task item: Does the compound O=C1CCc2ccc(OCCCCN3CCN(c4cccc(Cl)c4C(F)(F)F)CC3)nc2N1 have recorded pKi that is 7 or more?
Reply: true

Task item: Does the compound COc1cc(CN2CCCCC2)ccc1OCCCN1CCC(c2noc3cc(F)ccc23)CC1 have recorded pKi that is 7 or more?
Reply: true

Task item: Does the compound CCc1cc(Cl)c(OC)c(C(=O)NC[C@@H]2CCCN2Cc2ccccc2)c1O have recorded pKi that is 7 or more?
Reply: false

Task item: Does the compound CCCN(CCc1ccsc1)CCc1ccsc1 have recorded pKi that is 7 or more?
Reply: false

Task item: Does the compound C[C@H](Nc1cncc(NCCOc2ccc(F)cc2)c1)c1ccccc1 have recorded pKi that is 7 or more?
Reply: false

Task item: Does the compound N#Cc1ccc2c(c1)CCN(CC[C@H]1CC[C@H](NC(=O)c3cccc4ccccc34)CC1)CC2 have recorded pKi that is 7 or more?
Reply: false

Task item: Does the compound Cc1ccc2c(c1)N=C(C1=C[C@H](C)N(C)CC1)c1cc(C)ccc1N2 have recorded pKi that is 7 or more?
Reply: false

Task item: Does the compound COc1ccccc1N1CCN(Cc2ccc(CNC(=O)c3ccc4ccccc4c3)cc2)CC1 have recorded pKi that is 7 or more?
Reply: false

Task item: Does the compound O=S(=O)(c1cncc2ccccc12)N1CCC(CCN2CCN(c3cccc(F)c3)CC2)CC1 have recorded pKi that is 7 or more?
Reply: false

====

Recorded Ki for compounds tested on D(2) dopamine receptor (Homo sapiens, UniProt P14416), drawn from a number of studies.
Each record gets a class by Ki: low: < 20 nM; middle: ≥ 20 nM and < 300 nM; high: ≥ 300 nM

Some entries whose results are on file:
Task item: Place this compound in its band: O=C1c2ccccc2S(=O)(=O)N1CCCCCN1CCN(c2cccc(Cl)c2Cl)CC1
Reply: low

Task item: Place this compound in its band: CCCN[C@@H]1Cc2cccc3c2n(c(=O)n3CCCCNC(=O)c2cc3ccccc3[nH]2)C1
Reply: low

Task item: Place this compound in its band: O=C1c2ccccc2S(=O)(=O)N1CCCCCN1CCN(c2ccccn2)CC1
Reply: middle

Task item: Place this compound in its band: OC1(c2ccc(Cl)c(Cl)c2)CCN(Cc2coc3ccccc23)CC1
Reply: middle

---
Task item: Place this compound in its band: CCc1nc2c(N3CCNCC3)ccnc2n1Cc1cccc(F)c1
Reply: high

Task item: Place this compound in its band: O=S(=O)(NCC1CCN(CCOc2cccc(F)c2)CC1)c1ccc(F)cc1
Reply: high

Task item: Place this compound in its band: OC1(c2ccc(Cl)cc2)CCN(Cc2coc3ccccc23)CC1
Reply: middle
